Numbers sourced from PubChem BioAssay (NCI).

Test system: SK-MEL-28 melanoma
Experiment: NCI tumour cell line growth inhibition, 48 h
Below is a list of entries, each paired with its recorded TGI value.

# example entries with known answers
{"columns": ["molecule", "tested-on", "TGI"],
 "data": [
  ["CCN(CC)CCSc1c2ccccc2nc2c(OC)ccc(OC)c12", "SK-MEL-28 melanoma", "8.91 µM"],
  ["CC1(C)OC2C(O)C(CO)OC2(C(F)F)O1 (stereo unspecified)", "SK-MEL-28 melanoma", "> 100 µM"],
  ["CCc1ccc(/C=C/c2ccc(O)c3ncccc23)[n+](C)c1", "SK-MEL-28 melanoma", "> 100 µM"],
  ["COC(=O)C1=C(O)c2ccc(Cl)cc2S(=O)(=O)N1C", "SK-MEL-28 melanoma", "> 100 µM"]
]}

If you can, please state the reported TGI value of [N-]=[N+]=NCc1nc(N)c2c3c(sc2n1)CCCC3 .
36.3 µM

If you can, please state the reported TGI value of O=[N+]([O-])c1cccc2ccc(N/N=C/c3ccccc3O)nc12 .
> 100 µM

====

Tested on: SK-MEL-2 melanoma
Experiment: NCI tumour cell line growth inhibition, 48 h
Below is a list of entries, each paired with its recorded TGI value.
All answers are understood in µM, so give the number only.

If you can, please state the reported TGI value of COc1cc(C2CC(c3cccc(Nc4ccncc4)c3)=NN2c2ccc(Cl)cc2)cc(OC)c1OC (stereo not given) .
3.91

If you can, please state the reported TGI value of Cc1nc2cc(Nc3nc(Nc4ccc(F)cc4)nc(-c4cccs4)n3)ccc2n1Cc1ccccc1 .
5.44

If you can, please state the reported TGI value of O=C1CCC(=O)c2c1c(O)c1ccncc1c2O .
26.4

If you can, please state the reported TGI value of Oc1cn(-c2ccc(Cl)cc2)nc1-c1n[nH]c(=S)n1-c1ccccc1 .
52.7

If you can, please state the reported TGI value of COc1ccc(OC)c(/C=C(/C#N)c2ccccc2)c1 .
54.7

If you can, please state the reported TGI value of CC1(C)OC[C@@H]([C@H](O)C2C=CC(=O)S2)O1 (stereo not given in full) .
77.1

If you can, please state the reported TGI value of [N-]=[N+]=NCc1nc(N)c2c3c(sc2n1)CCCC3 .
27.9

If you can, please state the reported TGI value of CN(C)CCNC(=O)c1cccc2c(Nc3ccc(S(=O)(=O)N=C(N)N)cc3)c3ccccc3nc12 .
38.5

If you can, please state the reported TGI value of CC(C)[Si]1(C(C)C)OCC2OC3(CO)C(Oc4nc(=O)ccn43)C2O[Si](C(C)C)(C(C)C)O1 (stereo not given) .
30.5

If you can, please state the reported TGI value of COC(=O)C1=C(C(=O)OC)C2=S(SC3=C2CCCC3)S1 (stereo not given) .
85.6

If you can, please state the reported TGI value of COc1cc(/C=C/C(=O)c2cccc(-n3cc(-c4ccc(Cl)cc4)[nH]c3=O)c2)ccc1O .
14.4

If you can, please state the reported TGI value of Nc1ccccc1N=Cc1cc2cc([N+](=O)[O-])ccc2s1 .
37.3

If you can, please state the reported TGI value of COc1ccc2c(c1)CCCN2CCCCCCCCCCN(CCC(C)C)CCC(C)C .
22.8

If you can, please state the reported TGI value of N#Cc1c(-c2ccc(Cl)cc2)c(C#N)c(=O)n(NS(=O)(=O)c2ccccc2)c1O .
44

If you can, please state the reported TGI value of CC1OC(OC2C(OC(=O)[C@]34CCC(C)(C)C[C@H]3C3=CC[C@@H]5[C@@]6(C)CC[C@H](OC7OC(CO)C(O)C(O)C7OC7OC(CO)C(O)C(O)C7O)C(C)(C)[C@@H]6CC[C@@]5(C)[C@]3(C)CC4)OCC(O)C2O)C(O)C(OC2OCC(O)C(O)C2O)C1OC1OCC(O)C(OC2OCC(O)C(O)C2O)C1O (stereo not given in full) .
24.1

If you can, please state the reported TGI value of CC(C)=CCC/C(C)=C/CC/C(C)=C/CC(CO)N(C)CC/C=C(\C)CCC=C(C)C (stereo not given) .
28.6

If you can, please state the reported TGI value of O=c1nc(N2CCNCC2)oc2cc(Cl)oc(=O)c12 .
29.1

If you can, please state the reported TGI value of C=CCN1CCC23c4c5ccc(O)c4OC2C(=NN=C2CCC4(O)C6Cc7ccc(O)c8c7C4(CCN6CC=C)C2O8)CCC3(O)C1C5 (stereo not given) .
33.8

====

System: ACHN renal
Assay: NCI tumour cell line growth inhibition, 48 h
measured-endpoint: TGI

# example entries with known answers
{"columns": ["compound", "tested-on", "TGI"],
 "data": [
  ["C=C1C(=O)OC2CC(C)C(C(O)CC(C)O)=CCC12 (stereo unspecified)", "ACHN renal", "8.95 µM"],
  ["COC(=O)c1ccc2c(c1)/C(=C\\c1cc(Br)c(O)c(Br)c1)C(=O)N2", "ACHN renal", "> 25 µM"],
  ["COC1CCCCN1C(=O)c1ccccc1 (stereo unspecified)", "ACHN renal", "> 25.3 µM"],
  ["COC(=O)[C@@]1(C)/C(=N/NS(=O)(=O)c2ccc(C)cc2)CCC[C@@H]1C", "ACHN renal", "> 100 µM"],
  ["CCCOC(=O)CNC(=O)OC(C)(C)C", "ACHN renal", "> 100 µM"]
]}

If you can, please state the reported TGI value of CCOC(=O)/C=C(/C(=O)OCC)n1cnc2c(=O)[nH]c(NC(C)=O)nc21 .
> 100 µM

If you can, please state the reported TGI value of Cn1c(Nc2ccc(C(F)(F)F)cc2)nc2cc(Oc3ccnc(-c4ncc(C(F)(F)F)[nH]4)c3)ccc21 .
11.7 µM

If you can, please state the reported TGI value of CCOC(=O)/C=C/c1ccc(C#Cc2ccccc2)cc1 .
> 100 µM

If you can, please state the reported TGI value of CC(C)=CCc1cc2c(cc1O)OC[C@H]1c3cc4c(cc3O[C@@H]21)OCO4 .
> 100 µM

If you can, please state the reported TGI value of COC(=O)NC(C(F)(F)F)(C(F)(F)F)P1(=O)OCCCO1 .
54.2 µM

If you can, please state the reported TGI value of O=C(Cn1c(-c2ccccc2)cc2ccccc21)N1CCCC1 .
> 100 µM

====

System: HCC-2998 colon
Experiment: NCI tumour cell line growth inhibition, 48 h
Below is a list of entries, each paired with its recorded log10 TGI value.
The figures below represent log10 of TGI, where TGI is stated in µM.

# example entries with known answers
{"columns": ["compound", "tested-on", "quantitative-result"],
 "data": [
  ["[N-]=[N+]=NCc1nc(N)c2c3c(sc2n1)CCCC3", "HCC-2998 colon", 0.68],
  ["CCc1c(Cl)c(C)cc(O)c1Cl", "HCC-2998 colon", 1.43],
  ["O=C(Nc1ccc([N+](=O)[O-])cc1[N+](=O)[O-])C(=O)C(C(=O)c1ccc2ccccc2c1)C1OC(=O)c2ccccc21 (stereo unspecified)", "HCC-2998 colon", 1.40],
  ["FC(F)(F)c1ccc2c(c1)nc(-c1ccc(Cl)cc1)n2CC1CCCN2CCCCC12 (stereo unspecified)", "HCC-2998 colon", 1.43],
  ["CC(=O)c1c(O)ccc2c1c1c(n2C)C(=O)c2ccccc2C1=O", "HCC-2998 colon", 0.13]
]}

If you can, please state the reported log10 TGI value of COC(=O)C1=CN(CC2=CC(=O)C(C)=CC2=O)C=C(C(=O)OC)C1c1cccc(OC)c1 .
1.51

If you can, please state the reported log10 TGI value of O=C(O)CCSC(CC1(c2ccc(Cl)cc2)NC(=O)CCS1)c1ccccc1 (stereo unspecified) .
1.60

If you can, please state the reported log10 TGI value of COc1cccc(C2c3cc4c(cc3OC(C)(N3CCCC3)C2C)OCO4)c1 (stereo unspecified) .
1.52

====

Below is a list of entries, each paired with its recorded TGI value.
System: HCT-116 colon
Experiment: NCI tumour cell line growth inhibition, 48 h

{"columns": ["compound", "measured-endpoint", "result"],
 "data": [
  ["CCOC(=O)c1ccc(N=Nc2cc(C(=O)OCC)ccc2O)cc1", "TGI", "> 100 µM"],
  ["C=C1C(=O)OC2CC(C)C(C(O)CC(C)O)=CCC12 (stereo unspecified)", "TGI", "21.9 µM"],
  ["Nc1ccn([C@H]2CO[C@@H](CO)[C@@H]2O)c(=O)n1", "TGI", "> 100 µM"],
  ["C[N+](C)(C)CC1CCC/C1=N\\OC(=O)c1ccccc1 (stereo unspecified)", "TGI", "> 100 µM"],
  ["CCOC(=O)/C=C(\\C(=O)OCC)n1ccc(=O)n(Cc2cn(CCCCOC(C)=O)nn2)c1=O", "TGI", "> 47.4 µM"]
]}

If you can, please state the reported TGI value of COC(=O)NC(C(F)(F)F)(C(F)(F)F)P1(=O)OCCCO1 .
62 µM
